# methodSummary: Distribution in rat brain and plasma after single oral dose
# Assay type: in vivo, Sprague Dawley rats
# conditionParameters: Sprague Dawley, rat; Female SD rats, single oral dose 100 mg/kg, plasma
valueKind: Tmax (h)
Value expressed in h; do not type the unit.

Task item: Report measured Tmax; entry is COc1ncnc(C2CC2)c1-c1ncc2cnn(Cc3ccc(-c4nc(C(F)(F)F)cn4C(C)C)cc3)c2n1 [Crystalline Form 2]
Reply: 8

* * *

# methodSummary: Mouse pharmacokinetic study, single oral dose, plasma
# Format: in vivo, NOD/SCID mice
# conditionParameters: female, NOD/SCID, mouse, plasma, po, 300 mg/kg, Mouse 10; single PO dose 300 mg/kg
valueKind: AUC(0-t) (µg·h/mL)
Only the number, expressed in µg·h/mL, is required.

Task item: Return value of AUC(0-t) for input COc1ncnc(C2CC2)c1-c1ncc2cnn(Cc3ccc(-c4nc(C(F)(F)F)cn4C(C)C)cc3)c2n1 [Crystalline Form 8] , no commentary.
Reply: 145

* * *

# methodSummary: Distribution in mouse brain and plasma after repeated oral dosing
# Type: in vivo
# conditionParameters: plasma, 100 mg/kg QD oral gavage, 4 h (Day 28), female NOD SCID mice, read-out: Plasma Conc.
valueKind: concentration at 4 h (ng/mL)
Form entry: value (ng/mL) — number only.

Task item: Indicate the recorded concentration at 4 h value for this molecule: COc1ncnc(C2CC2)c1-c1ncc2cnn(Cc3ccc(-c4nc(C(F)(F)F)cn4C(C)C)cc3)c2n1 [Crystalline Form 2]
Reply: 5040

* * *

# methodSummary: Distribution in rat brain and plasma after single oral dose
# Assay type: in vivo, Sprague Dawley rats
# conditionParameters: Sprague Dawley, rat; Female SD rats, single oral dose 100 mg/kg, brain
valueKind: half-life (h)
Quick note: give the figure in h, leave out the unit.

Task item: Hello, please tell me recorded half-life for this one: COc1ncnc(C2CC2)c1-c1ncc2cnn(Cc3ccc(-c4nc(C(F)(F)F)cn4C(C)C)cc3)c2n1 [Crystalline Form 2]
Reply: 12.8

* * *

# methodSummary: Mouse pharmacokinetic study, single oral dose, plasma
# Assay type: in vivo, NOD/SCID mice
# conditionParameters: female, NOD/SCID, mouse, plasma, po, 300 mg/kg, Mouse 10; single PO dose 300 mg/kg, plasma; read-out: Tmax
valueKind: Tmax (h)
Give a bare numeral; the unit h is implied.

Task item: Report Tmax for COc1ncnc(C2CC2)c1-c1ncc2cnn(Cc3ccc(-c4nc(C(F)(F)F)cn4C(C)C)cc3)c2n1 [Crystalline Form 8]
Reply: 8

* * *

# methodSummary: Mouse pharmacokinetic study, single oral dose, plasma
# Type: in vivo, NOD/SCID mice
# conditionParameters: female, NOD/SCID, mouse, plasma, po, 300 mg/kg, Mouse 11; single PO dose 300 mg/kg, plasma; read-out: Cmax
valueKind: Cmax (ng/mL)
Reply with just the number (in ng/mL).

Task item: Assign Cmax to the following record: COc1ncnc(C2CC2)c1-c1ncc2cnn(Cc3ccc(-c4nc(C(F)(F)F)cn4C(C)C)cc3)c2n1 [Crystalline Form 8]
Reply: 18200

* * *

# methodSummary: Distribution in mouse brain and plasma after repeated oral dosing
# Assay type: in vivo
# conditionParameters: brain/plasma, 100 mg/kg QD oral gavage, 24 h (Day 28), female NOD SCID mice, read-out: B/P Ratio
# Description: Female NOD SCID mice of an age between 6-8 weeks and a body weight range of 18-22 g were purchased from Beijing Anikeeper Biotech Co, Ltd. Animals were habituated to the environment for at least 7 days prior to study initiation. Mice were dosed with Crystalline Form 2 at either 100 mg/kg or 300 mg/kg dose levels via oral gavage for 28 days. […] Concentrations of compound in brain homogenates (ng/g) and plasma (ng/ml) were then analyzed using an LC-MS/MS method. […]
valueKind: Kp at 24 h
Keep it simple and answer with nothing but the number.

Task item: Please give measured Kp at 24 h of the following entry: COc1ncnc(C2CC2)c1-c1ncc2cnn(Cc3ccc(-c4nc(C(F)(F)F)cn4C(C)C)cc3)c2n1 [Crystalline Form 2]
Reply: 0.091
